tested on: Bacillus subtilis; assay: Antibacterial activity against Bacillus subtilis ATCC 6051 after 18 hrs; type: functional; conditions: ATCC 6051, 18 h
I'd appreciate it if you could supply MIC values for the items below.

Task: Fill in the blank: the reported MIC of "C[C@H]1COc2c(N3CCN(CC(=O)c4ccc(Cl)cc4Cl)CC3)c(F)cc3c(=O)c(C(=O)O)cn1c23" is ____.
Output: 1 mg/L

Task: Fill in the blank: the reported MIC of "C[C@H]1COc2c(N3CCN(CC(=O)c4ccc(F)cc4)CC3)c(F)cc3c(=O)c(C(=O)O)cn1c23" is ____.
Output: 0.5 mg/L

Task: Fill in the blank: the reported MIC of "C[C@H]1COc2c(N3CCN(C/C(=N\OCc4ccccc4)c4ccccc4)CC3)c(F)cc3c(=O)c(C(=O)O)cn1c23" is ____.
Output: > 4 mg/L

Task: Fill in the blank: the reported MIC of "C[C@H]1COc2c(N3CCN(CC(=O)c4ccc(Cl)cc4)CC3)c(F)cc3c(=O)c(C(=O)O)cn1c23" is ____.
Output: 0.12 mg/L

Task: Fill in the blank: the reported MIC of "C[C@H]1COc2c(N3CCN(C/C(=N\O)c4ccc(Br)cc4)CC3)c(F)cc3c(=O)c(C(=O)O)cn1c23" is ____.
Output: 0.12 mg/L

Task: Fill in the blank: the reported MIC of C[C@H]1COc2c(N3CCN(C)CC3)c(F)cc3c(=O)c(C(=O)O)cn1c23.C[C@H]1COc2c(N3CCN(C)CC3)c(F)cc3c(=O)c(C(=O)O)cn1c23.O [LEVOFLOXACIN] is ____.
Output: 0.5 mg/L

Task: Fill in the blank: the reported MIC of "C[C@H]1COc2c(N3CCN(CC(=O)c4ccc(Br)cc4)CC3)c(F)cc3c(=O)c(C(=O)O)cn1c23" is ____.
Output: 0.25 mg/L

Task: Fill in the blank: the reported MIC of C[C@H]1COc2c(N3CCNCC3)c(F)cc3c(=O)c(C(=O)O)cn1c23 [N-DESMETHYL LEVOFLOXACIN] is ____.
Output: 1 mg/L

Task: Fill in the blank: the reported MIC of "C[C@H]1COc2c(N3CCN(C/C(=N\O)c4ccc(F)cc4)CC3)c(F)cc3c(=O)c(C(=O)O)cn1c23" is ____.
Output: 0.25 mg/L

---

I'd appreciate it if you could supply MIC values for the items below.
test system: Enterococcus faecalis; assay: Antibacterial activity against Enterococcus faecalis NCTC 6013 after 18 hrs; type: functional; details: NCTC 6013, 18 h
Report the value in µg/mL with no unit label.

Task: Fill in the blank: the reported MIC of "COc1ccc(/C(CN2CCN(c3c(F)cc4c(=O)c(C(=O)O)cn5c4c3OC[C@@H]5C)CC2)=N/O)cc1" is ____.
Output: 0.06

Task: Fill in the blank: the reported MIC of "C[C@H]1COc2c(N3CCN(C/C(=N\O)c4ccc(Cl)cc4Cl)CC3)c(F)cc3c(=O)c(C(=O)O)cn1c23" is ____.
Output: 4

Task: Fill in the blank: the reported MIC of "C[C@H]1COc2c(N3CCN(C/C(=N\O)c4ccc(Br)cc4)CC3)c(F)cc3c(=O)c(C(=O)O)cn1c23" is ____.
Output: 0.06

Task: Fill in the blank: the reported MIC of "Cc1ccc(C(=O)CN2CCN(c3c(F)cc4c(=O)c(C(=O)O)cn5c4c3OC[C@@H]5C)CC2)cc1" is ____.
Output: 0.25

Task: Fill in the blank: the reported MIC of "C[C@H]1COc2c(N3CCN(CC(=O)c4ccc(F)cc4)CC3)c(F)cc3c(=O)c(C(=O)O)cn1c23" is ____.
Output: 0.25

Task: Fill in the blank: the reported MIC of "C[C@H]1COc2c(N3CCN(C)CC3)c(F)cc3c(=O)c(C(=O)O)cn1c23.C[C@H]1COc2c(N3CCN(C)CC3)c(F)cc3c(=O)c(C(=O)O)cn1c23.O" is ____.
Output: 1

Task: Fill in the blank: the reported MIC of "C[C@H]1COc2c(N3CCNCC3)c(F)cc3c(=O)c(C(=O)O)cn1c23" is ____.
Output: 0.06

Task: Fill in the blank: the reported MIC of "C[C@H]1COc2c(N3CCN(C/C(=N\O)c4ccccc4)CC3)c(F)cc3c(=O)c(C(=O)O)cn1c23" is ____.
Output: 4

Task: Fill in the blank: the reported MIC of "C[C@H]1COc2c(N3CCN(CC(=O)c4ccc(Cl)cc4Cl)CC3)c(F)cc3c(=O)c(C(=O)O)cn1c23" is ____.
Output: 0.5

---

system: Staphylococcus aureus; experiment: Antibacterial activity against Staphylococcus aureus ATCC 25923 after 18 hrs; type: functional; details: ATCC 25923, 18 h
TEST_READOUT: MIC (µg/mL)
Report the value in µg/mL with no unit label.

Task: Form: Entry = "C[C@H]1COc2c(N3CCN(C)CC3)c(F)cc3c(=O)c(C(=O)O)cn1c23.C[C@H]1COc2c(N3CCN(C)CC3)c(F)cc3c(=O)c(C(=O)O)cn1c23.O" | System = Staphylococcus aureus | MIC = ____
Output: 0.5

Task: Form: Entry = "COc1ccc(/C(CN2CCN(c3c(F)cc4c(=O)c(C(=O)O)cn5c4c3OC[C@@H]5C)CC2)=N/O)cc1" | System = Staphylococcus aureus | MIC = ____
Output: 1

Task: Form: Entry = "C[C@H]1COc2c(N3CCN(C/C(=N\O)c4ccc(Cl)cc4Cl)CC3)c(F)cc3c(=O)c(C(=O)O)cn1c23" | System = Staphylococcus aureus | MIC = ____
Output: 0.5

---

test system: Enterococcus faecalis; test: Antibacterial activity against Enterococcus faecalis NCTC 6013 after 18 hrs; type: functional; conditions: NCTC 6013, 18 h
TEST_READOUT: MIC (µg/mL)
Report the value in µg/mL with no unit label.

Task: Fill in the blank: the reported MIC of "C[C@H]1COc2c(N3CCN(C/C(=N\O)c4ccc(F)cc4)CC3)c(F)cc3c(=O)c(C(=O)O)cn1c23" is ____.
Output: 0.25

Task: Fill in the blank: the reported MIC of "Cc1ccc(/C(CN2CCN(c3c(F)cc4c(=O)c(C(=O)O)cn5c4c3OC[C@@H]5C)CC2)=N/O)cc1" is ____.
Output: 0.25

Task: Fill in the blank: the reported MIC of "C[C@H]1COc2c(N3CCN(C/C(=N\O)c4ccc(Cl)cc4)CC3)c(F)cc3c(=O)c(C(=O)O)cn1c23" is ____.
Output: 0.06

Task: Fill in the blank: the reported MIC of "C[C@H]1COc2c(N3CCN(CC(=O)c4ccc(Cl)cc4)CC3)c(F)cc3c(=O)c(C(=O)O)cn1c23" is ____.
Output: 0.06

Task: Fill in the blank: the reported MIC of "C[C@H]1COc2c(N3CCN(CC(=O)c4ccccc4)CC3)c(F)cc3c(=O)c(C(=O)O)cn1c23" is ____.
Output: 4

Task: Fill in the blank: the reported MIC of "C[C@H]1COc2c(N3CCN(CC(=O)c4ccc(Br)cc4)CC3)c(F)cc3c(=O)c(C(=O)O)cn1c23" is ____.
Output: 0.12

Task: Fill in the blank: the reported MIC of "COc1ccc(C(=O)CN2CCN(c3c(F)cc4c(=O)c(C(=O)O)cn5c4c3OC[C@@H]5C)CC2)cc1" is ____.
Output: 0.06

---

system: Staphylococcus aureus; test: Antibacterial activity against Staphylococcus aureus ATCC 25923 after 18 hrs; assay type: functional; conditions: ATCC 25923, 18 h
I'd appreciate it if you could supply MIC values for the items below.
Report the value in µg/mL with no unit label.

Task: Form: Entry = "C[C@H]1COc2c(N3CCN(CC(=O)c4ccccc4)CC3)c(F)cc3c(=O)c(C(=O)O)cn1c23" | System = Staphylococcus aureus | MIC = ____
Output: 0.5

Task: Form: Entry = "C[C@H]1COc2c(N3CCN(C/C(=N\O)c4ccc(Cl)cc4)CC3)c(F)cc3c(=O)c(C(=O)O)cn1c23" | System = Staphylococcus aureus | MIC = ____
Output: 0.5

Task: Form: Entry = "COc1ccc(C(=O)CN2CCN(c3c(F)cc4c(=O)c(C(=O)O)cn5c4c3OC[C@@H]5C)CC2)cc1" | System = Staphylococcus aureus | MIC = ____
Output: 0.5

Task: Form: Entry = "C[C@H]1COc2c(N3CCN(CC(=O)c4ccc(Cl)cc4)CC3)c(F)cc3c(=O)c(C(=O)O)cn1c23" | System = Staphylococcus aureus | MIC = ____
Output: 0.5

Task: Form: Entry = "C[C@H]1COc2c(N3CCN(C/C(=N\O)c4ccc(Br)cc4)CC3)c(F)cc3c(=O)c(C(=O)O)cn1c23" | System = Staphylococcus aureus | MIC = ____
Output: 0.5

Task: Form: Entry = "Cc1ccc(/C(CN2CCN(c3c(F)cc4c(=O)c(C(=O)O)cn5c4c3OC[C@@H]5C)CC2)=N/O)cc1" | System = Staphylococcus aureus | MIC = ____
Output: 1

Task: Form: Entry = "C[C@H]1COc2c(N3CCN(C/C(=N\O)c4ccccc4)CC3)c(F)cc3c(=O)c(C(=O)O)cn1c23" | System = Staphylococcus aureus | MIC = ____
Output: 0.5

Task: Form: Entry = "C[C@H]1COc2c(N3CCN(CC(=O)c4ccc(F)cc4)CC3)c(F)cc3c(=O)c(C(=O)O)cn1c23" | System = Staphylococcus aureus | MIC = ____
Output: 1

Task: Form: Entry = "Cc1ccc(C(=O)CN2CCN(c3c(F)cc4c(=O)c(C(=O)O)cn5c4c3OC[C@@H]5C)CC2)cc1" | System = Staphylococcus aureus | MIC = ____
Output: 0.5

Task: Form: Entry = "C[C@H]1COc2c(N3CCN(C/C(=N\O)c4ccc(F)cc4)CC3)c(F)cc3c(=O)c(C(=O)O)cn1c23" | System = Staphylococcus aureus | MIC = ____
Output: 1

Task: Form: Entry = "C[C@H]1COc2c(N3CCN(CC(=O)c4ccc(Cl)cc4Cl)CC3)c(F)cc3c(=O)c(C(=O)O)cn1c23" | System = Staphylococcus aureus | MIC = ____
Output: 0.5

Task: Form: Entry = "C[C@H]1COc2c(N3CCN(CC(=O)c4ccc(Br)cc4)CC3)c(F)cc3c(=O)c(C(=O)O)cn1c23" | System = Staphylococcus aureus | MIC = ____
Output: 0.5

Task: Form: Entry = "C[C@H]1COc2c(N3CCNCC3)c(F)cc3c(=O)c(C(=O)O)cn1c23" | System = Staphylococcus aureus | MIC = ____
Output: 4
